# assayed_target: Dual specificity protein phosphatase 3 (Homo sapiens) (UniProt P51452)
# Sequence (P51452 whole entry, looked up): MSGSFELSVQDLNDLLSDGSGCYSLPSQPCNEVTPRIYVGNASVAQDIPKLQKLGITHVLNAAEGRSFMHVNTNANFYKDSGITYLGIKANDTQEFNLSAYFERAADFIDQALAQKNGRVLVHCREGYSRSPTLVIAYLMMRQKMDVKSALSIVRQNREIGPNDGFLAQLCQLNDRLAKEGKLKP
# assay_method_text: human DUSP3 enzyme inhibition – biochemical, fluorescence, OMFP substrate, selectivity assay for LMPTP inhibitor project, dose response (AID 686961)
# conditions_used: recombinant VHR-1 enzyme, OMFP fluorogenic substrate, 50 min
Activity calls are given as the source filed them.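 Rule for the calls: active = IC50 at or below 20 µM; inactive = the rest.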
The categories you may choose from are active, inactive

IN: Please let me know the test result on file for `O=C(CCN1C(=O)/C(=C/c2ccc3c(c2)OCO3)SC1=S)Nc1ccc(C(=O)O)cc1` .
OUT: active

IN: Dear colleague, could you share the recorded outcome for `c1ccc(-c2nc(NCCCn3ccnc3)c3ccccc3n2)cc1` when you have a moment?
OUT: inactive

IN: What classification did `O=C1C(=Cc2cn(-c3ccccc3)nc2-c2ccc(OCc3ccccc3)cc2)SC(=S)N1CCS(=O)(=O)O` end up with in this test?
OUT: active

IN: What call does the record list for `CCN(c1ccccc1)S(=O)(=O)c1cc(C(=O)O)ccc1C` ?
OUT: active

IN: In this assay, the call recorded for `NS(=O)(=O)c1ccc(CNC(=O)Cc2cccs2)cc1` was what?
OUT: active

IN: Field: outcome | Entry: `Fc1ccccc1-c1nc(NCCCN2CCOCC2)c2ccccc2n1`
OUT: inactive

IN: Name the outcome recorded for `Cc1c(CCC(=O)O)c(=O)oc2c(C)c3occ(-c4ccc(Cl)cc4)c3cc12` in the assay.
OUT: active

IN: Could you check what this test reported for `COc1ccc(Nc2nc(NCc3cccs3)nc3ccsc23)cc1OC` ?
OUT: active

IN: Hey, what did the test say about `CCc1nc(N)nc(N)c1-c1ccc(NCCN)c([N+](=O)[O-])c1` ?
OUT: active

IN: // outcome(item) with item = `Cc1ccc(-c2nc(NC(=O)CSc3cc(C)c4ccccc4n3)ns2)cc1`
OUT: active

IN: Dear all, I need the recorded test outcome for `COc1cccc(N2CCN(C(=O)c3ccc(CSc4nc5ccncc5[nH]4)cc3)CC2)c1` , thank you.
OUT: active

IN: // outcome(item) with item = `c1ccc(-c2cc(NCCN3CCCCC3)c3ccccc3n2)cc1`
OUT: active

IN: What did the test return for `Cc1cccc2nc(-c3ccccc3)nc(N[C@@H](CO)c3ccccc3)c12` ?
OUT: inactive

IN: Which outcome did this test record for the compound `CCOC(=O)c1cc(-c2ccc(N3CCOCC3)cc2)nn1-c1ccccc1C(=O)O` ?
OUT: active

IN: How did this test come out for `Clc1cccc(Cl)c1Cn1cnc(=NCc2ccco2)c2[nH]cnc21` ?
OUT: inactive

IN: What outcome does the record of this test show for `O=C(OCCNc1nc(-c2ccccc2)nc2ccccc12)c1cccnc1` ?
OUT: inactive

IN: Which outcome was assigned to `c1ccc(-c2cc(N3CCCCC3)c3ccccc3n2)cc1` in this test?
OUT: inactive

IN: So what was the verdict on `O=C(/C=C/c1ccc(Br)cc1)NC(=O)c1ccccc1O` in this test?
OUT: active

IN: Write down the call the test reported for this compound. Item: `c1ccc(-c2nc(NCCCN3CCOCC3)c3ccccc3n2)cc1`
OUT: inactive

IN: Answer briefly: the call reported for `Cc1[nH]ccc2cc3nc4ccccc4c3cc12` in this assay.
OUT: active

IN: Check the results log: what was the call for `Cc1cccc(-c2nc(NCCCN3CCOCC3)c3ccccc3n2)c1` ?
OUT: inactive

IN: Tell me the assay call for `Cc1cc(N2CCC(C)CC2)nc2cccc(O)c12` please.
OUT: active

IN: For CC1C(=O)N(Cc2cn(Cc3ccco3)nn2)CCS(=O)(=O)N1Cc1ccc(-c2cccnc2)cc1 (configuration not stated) , which call appears in the assay record?
OUT: active

IN: Hi, sorry to bother you, what did the test record for `O=C(COc1ccc(/C=N/NC(=O)c2ccc(O)cc2)cc1)Nc1cccc([N+](=O)[O-])c1` ?
OUT: active

IN: Call for entry `NC(=O)Cc1ccc(C(=O)CSc2nnc(-c3ccncc3)n2C2CC2)s1` :
OUT: active

IN: So what was the verdict on `c1ccc(-c2nc(NCc3cccnc3)c3ccccc3n2)cc1` in this test?
OUT: inactive

IN: GET /call?item= CC(Nc1nc(N2CCNCC2)nc2ccccc12)c1ccccc1 (configuration not stated) returns the recorded outcome of this test.
OUT: active

IN: Could you please tell me the result logged for `O=C(N/N=C/c1cccc(Br)c1)c1ccc(Br)cc1` in this assay?
OUT: active

IN: Fill in: this test's call for `O=C(OCCNc1nc(-c2ccccc2)nc2ccccc12)c1ccncc1` is ___
OUT: inactive

IN: Hi, sorry to bother you, what did the test record for `Cc1ccccc1Nc1cc(C)c2c(O)cccc2n1` ?
OUT: inactive

IN: Which outcome did this test record for the compound `Fc1ccccc1-c1nc(NC2CCCC2)c2ccccc2n1` ?
OUT: inactive

IN: Call for entry `Cc1cc(N2CCN(S(=O)(=O)c3ccc(Cl)c(Cl)c3)CC2)c2ccccc2n1` :
OUT: inactive

Attribution: PubChem BioAssay AID686961
